biological target: SpHse1; assay: SPOT peptide array binding signal intensity (averaged, normalized) (arbitrary units (background-subtracted, floor 0; scale differs between SH3 domains)); higher = stronger binding of the SH3 domain to the peptide
SPOT peptide array binding signal intensity: recorded values
readout-label: SPOT peptide array binding signal intensity

{"binder": "RLPAPPPPPRRGPAP", "data-value": 2.25}
{"binder": "LRIKRKPVQTFFEFI", "data-value": 686}
{"binder": "LKVTPGRRAPTISKI", "data-value": 67.8}
{"binder": "NRPAIRIPSLKKPAL", "data-value": 664}
